Field: GI50. Provide a value for each of the compounds that follow.
tested on: LOX IMVI; assay: NCI tumour cell line growth inhibition, 48 h
Calls of active or inactive are those of the source. No stated cut-off is given here; in the data, active = GI50 up to about 1.1 µM and inactive = higher.

# compound, measurement
measured = [
    ("Cc1ccc(S(=O)(=O)n2cc(-c3cc(C(F)(F)F)ccn3)c3cc(Br)ccc32)cc1", "28.1 µM (inactive)"),
]

# batch: return GI50 for each of the 7 compounds below
1. COc1ccc(C2Oc3cc(OC)c(O)cc3[C@@H]2C)cc1 (some centres undefined)
2. Nc1nc(Cl)c2ncn(Cc3ccc(CCl)cc3)c2n1
3. O=C1/C(=C/c2cccc([N+](=O)[O-])c2)CCCc2ccccc21
4. CC(C(=O)O)c1ccc(-n2nnc3c(=O)[nH][nH]c(=O)c32)cc1 (centres undefined)
5. COC(=O)C1Cc2ccc(C)cc2C1=O (centres undefined)
6. CS(=O)(=O)C1S(=O)(=O)OCCOS1(=O)=O
7. Nc1c2c(nc3ccccc13)-c1ccccc1NCCC2

*A*
1. 14.3 µM (inactive)
2. 5.41 µM (inactive)
3. 3.4 µM (inactive)
4. > 100 µM (inactive)
5. > 100 µM (inactive)
6. > 100 µM (inactive)
7. 16.8 µM (inactive)

*Q* # lookup: GI50 of "NNC(=O)CCC(=O)Nc1ccc(Cl)cc1Cl"
*A* 43.8 µM (inactive)

---

tested on: LXFL 529; experiment: NCI tumour cell line growth inhibition, 48 h
Calls of active or inactive are those of the source. No stated cut-off is given here; in the data, active = GI50 up to about 1.1 µM and inactive = higher.
Field: GI50. Provide a value for each of the molecules that follow.

Solved entries (count: 4):
# molecule, system.name, measurement.name, measurement
measured = [
    ("C[P+](C)(C)c1ccccc1", "LXFL 529", "GI50", "> 100 µM (inactive)"),
    ("COc1ccc2c3ccc4c(c3n(C)c2c1)C(=O)C=CC4=O", "LXFL 529", "GI50", "15.2 µM (inactive)"),
    ("C/C(=N\\N(C)C)c1sc(-n2nc(-c3ccccc3)cc2-c2ccccc2)nc1C", "LXFL 529", "GI50", "> 100 µM (inactive)"),
    ("CCCCNC(=S)OCCC(C)CCCC(C)C (stereo not drawn)", "LXFL 529", "GI50", "> 100 µM (inactive)"),
]

# batch: return GI50 for each of the 4 molecules below
1. OC1OC2COC(c3ccccc3)OC2C(O)C1O (stereo not drawn)
2. CC(C)=CCCC1(C)C=Cc2c(c(C)cc3c2[nH]c2cc(O)ccc23)O1 (stereo not drawn)
3. Cc1ccc(C(=O)CC2=Nc3nnc(CCCCCCCc4nnc5n4C(=O)C(CC(=O)c4ccc(C)cc4)=N5)n3C2=O)cc1
4. CC(C)S(=O)(=O)ON1C(=O)c2ccc(N(C)C)cc2C1=O

*A*
["> 100 µM (inactive)", "> 25 µM (inactive)", "> 100 µM (inactive)", "9.91 µM (inactive)"]

---

system: CAKI-1; test: NCI tumour cell line growth inhibition, 48 h
Active and inactive are the calls of the source. Cut-off read from the data, not from the text of the source: active = GI50 up to about 1.1 µM and inactive = higher.
Please state which outcome applies, choosing from active, inactive

# molecule, class.assignment
records = [
    ("O=C(Nc1ccccc1)C(=O)C(C(=O)c1ccccc1F)C1OC(=O)c2ccccc21 (configuration not stated)", "inactive"),
    ("COc1cc(C2C3=C(CCC3=O)Oc3cc4c(cc32)OCO4)cc(OC)c1OC (configuration not stated)", "active"),
    ("CCCCCC(=O)OC[n+]1ccc2c(C)c3[nH]c4ccc(OC)cc4c3c(C)c2c1", "active"),
]

*Q* Answer briefly: the call reported for "CC1(n2nc(-c3ccccc3)n(-c3ccccc3)c2=O)CSC1" in this assay.
*A* inactive

*Q* Record: "Cc1cc(Cl)ccc1NC(=O)C(=O)Cc1nc2ccc(C(=O)c3ccccc3)cc2nc1O"
*A* inactive

*Q* Record: "C=C(Cl)COC(=O)Nc1cccc(Cl)c1"
*A* inactive

*Q* Record: "Cc1ccc(/N=N/C(=N\c2ccc(Cl)cc2)c2ccc(N(CCC#N)CCC#N)cc2)cc1"
*A* inactive

*Q* Record: CC[C@@]1(O)C(=O)OCc2c1cc1n(c2=O)Cc2c-1nc1ccccc1c2/C=N\NC(=O)C(N)CS (some centres not stated)
*A* active

*Q* Record: "COc1ccc(-c2cc(-c3cc4cc(Br)ccc4nc3Cl)c(C#N)c(N)n2)cc1"
*A* inactive

*Q* Record: COc1ccc(N2C(=O)C3c4[nH]c5ccccc5c4C4CCC(C(C)(C)C)CC4C3C2=O)c(C)c1 (configuration not stated)
*A* inactive

*Q* Record: "Oc1cccc(-c2ccc3c4c2O[C@H]2c5[nH]c6ccccc6c5C[C@@]5(O)[C@@H](C3)N(CC3CC3)CC[C@]425)c1"
*A* inactive

*Q* Record: CCOC(OC1=C(C#N)CCCC1)C(CC)[Se]c1ccccc1[N+](=O)[O-] (configuration not stated)
*A* inactive

*Q* Record: "Cc1ccc(C(=O)c2[nH]c(Nc3cc(C)ccn3)c(C(=S)Nc3ccccc3)c2N)cc1"
*A* inactive

*Q* Record: "COc1c(C)c(C/C=C(\C)CC/C=C(\C)CC/C=C(\C)CCC=C(C)C)c(OC)c(OC)c1OC"
*A* inactive

*Q* Record: "O=S(=O)(N=S(c1ccc(Cl)cc1)c1ccc(Cl)cc1)c1ccccc1"
*A* inactive

*Q* Record: COc1cc([C@@H]2c3cc4c(cc3[C@@H](/N=C/c3ccc(C(=O)O[C@H]5C[C@H]6OC[C@@]6(OC(C)=O)[C@H]6[C@H](OC(=O)c7ccccc7)[C@]7(O)C[C@H](OC(=O)[C@H](OC(=O)c8ccc(/C=N/[C@@H]9c%10cc%11c(cc%10[C@@H](c%10cc(OC)c(O)c(OC)c%10)[C@H]%10C(=O)OC[C@@H]%109)OCO%11)cc8)[C@@H](NC(=O)c8ccccc8)c8ccccc8)C(C)=C([C@@H](OC(C)=O)C(=O)[C@]56C)C7(C)C)cc3)C3COC(=O)C32)OCO4)cc(C)c1O (some centres not stated)
*A* inactive

*Q* Record: Cc1ccc(S(=O)(=O)N(CC(O)COc2ccccc2)c2ccccc2Cl)cc1 (configuration not stated)
*A* inactive

*Q* Record: CC(C)=CC(=O)OC1C2C(C)C(=O)OC2C(O)C(C)C2C=CC(=O)C21C (configuration not stated)
*A* inactive

*Q* Record: "CCOC(=O)/C=C(\C(=O)OCC)n1ccc(=O)n(Cc2cn(CCCCOC(C)=O)nn2)c1=O"
*A* inactive

*Q* Record: COc1ccc(C2C(Cl)C(=O)N2NC(=O)c2ccc(N)cc2)cc1 (configuration not stated)
*A* inactive

*Q* Record: c1ccc2c(c1)CCCN1CCc3ccccc3C21 (configuration not stated)
*A* inactive

*Q* Record: O=C(Nc1ccccc1)N(C1=NCC(CI)S1)c1ccc(F)c(F)c1 (configuration not stated)
*A* inactive

*Q* Record: "CN(C)c1ccc(/C=C2\N=C(c3ccccc3)N(c3nc4ccc(Sc5ccccc5)cc4[nH]3)C2=O)cc1"
*A* inactive

*Q* Record: "Cc1nc2ccc(Cl)cc2c(-n2ccnc2)c1CCn1ccnc1"
*A* inactive

---

test system: DMS-273; assay: NCI tumour cell line growth inhibition, 48 h
Active and inactive are the calls of the source. Cut-off read from the data, not from the text of the source: active = GI50 up to about 1.1 µM and inactive = higher.
Field: GI50. Provide a value for each of the compounds that follow.

Solved entries (count: 5):
# compound, GI50
rows = [
    ("O=C(CN1CCN(c2cccc(Cl)c2)CC1)N1CCc2c([nH]c3ccccc23)C1c1cccnc1 (stereo unspecified)", "6.68 µM (inactive)"),
    ("O=P1(O)c2ccccc2Nc2cc(C(F)(F)F)ccc21", "> 100 µM (inactive)"),
    ("CCCCCCCCCOC(=S)NC", "18.3 µM (inactive)"),
    ("C[P+](C)(C)c1ccccc1", "> 100 µM (inactive)"),
    ("CN(C)CCC(/C=C/c1ccccc1)=N\\Nc1c(F)c(F)c(F)c(F)c1F", "36.8 µM (inactive)"),
]

Proceed to the following item.
*Q* # lookup: GI50 of "O=C(Nc1cc(Cl)ccc1Cl)c1cc2cccc(Br)c2oc1=O"
*A* > 100 µM (inactive)

---

test system: PC-3; assay: NCI tumour cell line growth inhibition, 48 h
The source made the active and inactive calls. Cut-off read from the data, not from the text of the source: active = GI50 up to about 1.1 µM and inactive = higher.
Please state which outcome applies, choosing from Y = active, N = inactive

*Q* Answer briefly: the call reported for "O=C(O)CCc1nc2cc3ccccc3cc2[nH]c1=O" in this assay.
*A* N

*Q* Record: "O=C(Cn1c(=O)oc2ccc(C(=O)c3cccc(Cl)c3)cc21)c1ccccc1"
*A* N

---

test system: EKVX; assay: NCI tumour cell line growth inhibition, 48 h
Active and inactive are the calls of the source. Rule as the data show it: active = GI50 up to about 1.1 µM and inactive = higher.
Please state which outcome applies, choosing from active, inactive

Consider the following illustrative entries.
# compound, class.assignment
records = [
    ("COc1ccc(CNc2nc3cc(C(F)(F)F)ccc3nc2-c2ccccc2)cc1OC", "inactive"),
    ("CN(CCCNCc1ccccn1)Cc1ccccc1O", "inactive"),
    ("CN(C)CCNC(=O)c1cccc2c(NC(CCCNC(=N)N)C(=O)O)c3ccccc3[n+](C)c12 (stereo not drawn)", "inactive"),
    ("CN1N=C(c2ccncc2)OC1c1ccc(C(F)(F)F)cc1 (stereo not drawn)", "inactive"),
    ("Cc1ccc(/C=C2\\CCC/C(=C\\c3ccc(O)c(CN4CCCCC4)c3)C2=O)cc1", "inactive"),
]

Attention now turns to another entry.
*Q* Answer briefly: the call reported for CC(C)=CC(=O)OC1C2C(C)C(=O)OC2C(O)C(C)C2C=CC(=O)C21C (stereo not drawn) in this assay.
*A* inactive
